- System: vancomycin-resistant Enterococcus (VRE)
- ASSAY: agar dilution method, inhibitory effect on VRE
- Type: cell-based
- EXPERIMENTAL_SETUP: Enterococcus, read-out: Minimum inhibitory concentration (MIC50, μg/ml) VRE
Response field label takes Criterion met when MIC50 is strictly below 0.9 µg/mL and Criterion not met in all other cases.

molecule="CC(O)[C@@H]1CN(c2ccc(-c3ccc(-c4nnn(C)n4)nc3)c(F)c2)C(=O)O1.O=P(O)(O)O (stereo partly shown)" cat="Criterion met"
molecule="C=Cn1nnc(-c2ccc(-c3ccc(N4C[C@@H](C(O)CF)OC4=O)cc3F)cn2)n1.O=P(O)(O)O (stereo partly shown)" cat="Criterion met"

# ---- query molecule ----
Determine whether this molecule shows MIC50 lower than 0.9 µg/mL (ties excluded): C=Cn1nnc(-c2ccc(-c3ccc(N4C[C@H](C(O)CC)OC4=O)cc3F)cn2)n1.O=P(O)(O)O (stereo partly shown) Criterion met
